# Tested on: FAB9
# ASSAY_TEXT: qHTS profiling for inhibitors of Plasmodium falciparum proliferation (AID 504749); further: nearly all actives have a fitted effect of over 60% in size
# EXPERIMENTAL_SETUP: P. falciparum in erythrocytes, SYBR Green DNA, 72 h; series mostly up to 28.7 µM
Results filed as inconclusive are left out. Active and inactive are the calls of the source. The call rests on the fitted dose curve; in most records, active means well fitted inhibition curve with a large enough effect; inconclusive means small, poorly fitted or top-dose-only effect; inactive means flat fitted curve, though single readings scatter.
Can you answer with just one of these options? t for active, f for inactive

1) CCOCCn1c(N2CCCN(C)CC2)nc2ccccc21
f
2) CCOC(=O)[C@H](CCc1ccccc1)N[C@@H](C)C(=O)N1[C@H](C(=O)O)C[C@H]2CCCC[C@@H]21
f
3) CCOc1ccccc1OCCN[C@H](C)Cc1ccc(OC)c(S(N)(=O)=O)c1
f

Incoming: Outcome? CCCCC(CC)COC(=O)/C=C/c1ccc(OC)cc1 (stereo unspecified)
Outgoing: f

Incoming: Outcome? `COc1cc(O)c(C(=O)c2ccccc2)cc1S(=O)(=O)O`
Outgoing: f

Incoming: Outcome? CCc1ccc(C(=O)C(C)CN2CCCCC2)cc1 (stereo unspecified)
Outgoing: f

Incoming: Outcome? `CN1CCN(C2=Nc3ccccc3Sc3ccc(Cl)cc32)CC1`
Outgoing: f

Incoming: Outcome? `CC(=O)O[C@H]1C[C@@H]2CC[C@@H]3[C@H](CC[C@@]4(C)[C@H]3C[C@H]([N+]3(C)CCCCC3)[C@@H]4OC(C)=O)[C@@]2(C)C[C@@H]1N1CCCCC1`
Outgoing: f
